Provenance of the data: patent US8771665B2

Give IC50 for every item shown.
Target: HCV1b NS5B polymerase delta 21 (Hepatitis C virus genotype 1b, UniProt P26663)
Construct: purified HCV1b NS5B polymerase delta 21
Sequence (P26663 2420-2989): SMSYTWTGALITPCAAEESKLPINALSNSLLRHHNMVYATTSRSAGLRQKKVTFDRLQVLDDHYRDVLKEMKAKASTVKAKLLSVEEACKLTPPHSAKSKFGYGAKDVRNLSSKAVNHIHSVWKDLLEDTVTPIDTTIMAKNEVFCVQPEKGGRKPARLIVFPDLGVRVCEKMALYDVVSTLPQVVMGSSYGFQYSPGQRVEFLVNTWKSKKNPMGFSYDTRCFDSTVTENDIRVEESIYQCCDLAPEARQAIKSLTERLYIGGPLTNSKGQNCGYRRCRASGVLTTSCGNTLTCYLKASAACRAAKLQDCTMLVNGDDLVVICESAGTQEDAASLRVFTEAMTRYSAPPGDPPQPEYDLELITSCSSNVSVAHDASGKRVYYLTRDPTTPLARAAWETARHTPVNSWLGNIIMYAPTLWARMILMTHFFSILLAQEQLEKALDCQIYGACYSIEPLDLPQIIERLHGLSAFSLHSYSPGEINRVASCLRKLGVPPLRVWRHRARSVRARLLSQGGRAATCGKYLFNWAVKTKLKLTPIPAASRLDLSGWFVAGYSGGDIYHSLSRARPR
Test: RNA-Dependent RNA HCV NS5B (Polymerase) Assay and IC50 Determination
Format: biochemical

Write down IC50 measured for item CC1CCC(C2=C(c3cc(-c4ccccc4)sc3C(=O)O)CCN(C(=O)Cc3cccc4ccccc34)C2)CC1 (stereo not shown)
> 10 µM

Write down IC50 measured for item CCCC#Cc1cc(C2=C(C3CCC(C)CC3)CN(CC)CC2)c(C(=O)O)s1 (stereo not shown)
< 3 µM

Write down IC50 measured for item CC1CCC(C2=C(c3cc(C#CC(C)(C)O)sc3C(=O)O)CCN(C)C2)CC1 (stereo not shown)
< 3 µM

Write down IC50 measured for item CCN1CCC(c2cc(-c3ccc(NC(=O)c4cscn4)cc3)sc2C(=O)O)=C(C2CCC(C)CC2)C1 (stereo not shown)
< 3 µM

----------
Molecular target: HCV1b NS5B polymerase delta 21 (Hepatitis C virus genotype 1b, UniProt P26663)
Construct: purified HCV1b NS5B polymerase delta 21
Test: RNA-Dependent RNA HCV NS5B (Polymerase) Assay and IC50 Determination
Format: biochemical
pIC50: −log10 of the molar value.
Give pIC50 for every item shown.

Write down pIC50 measured for item CC1CCC(C2=C(c3cc(-c4ccc(NC(=O)c5cscn5)cc4)sc3C(=O)OCOC(=O)C(C)(C)C)CCN(C)C2)CC1 (stereo not shown)
< 5.00

Write down pIC50 measured for item CC1CCC(C2=C(c3cc(-c4ccccc4)sc3C(=O)O)CCN(C(=O)Cn3cnc4ccccc43)C2)CC1 (stereo not shown)
> 5.52

Write down pIC50 measured for item CC1CCC(C2=C(c3cc(-c4ccc(NC(=O)c5cscn5)cc4)sc3C(=O)OCOC(=O)OC(C)C)CCN(C)C2)CC1 (stereo not shown)
< 5.00

Write down pIC50 measured for item CC1CC=C(C2=C(c3cc(C#CC(C)(C)C)sc3C(=O)O)CCN(C)C2)CC1 (stereo not shown)
> 5.52

Write down pIC50 measured for item CC1CCC(C2=C(c3cc(-c4ccccc4)sc3C(=O)O)CCN(C(=O)Cc3nc4ccccn4n3)C2)CC1 (stereo not shown)
5.00 to 5.52

Write down pIC50 measured for item CCCC(=O)OCOC(=O)c1sc(-c2ccc(NC(=O)c3cscn3)cc2)cc1C1=C(C2CCC(C)CC2)CN(C)CC1 (stereo not shown)
5.00 to 5.52

Write down pIC50 measured for item Cc1cc(C)n2nc(CN3CCC(c4cc(-c5ccccc5)sc4C(=O)O)=C(C4CCC(C)CC4)C3)nc2n1 (stereo not shown)
> 5.52

----------
Give IC50 for every item shown.
Molecular target: HCV1b NS5B polymerase delta 21 (Hepatitis C virus genotype 1b, UniProt P26663)
Construct: purified HCV1b NS5B polymerase delta 21
Test: RNA-Dependent RNA HCV NS5B (Polymerase) Assay and IC50 Determination
Format: biochemical
Where a name gives a salt, the structure may show the parent alone.

Write down IC50 measured for item CCOC(=O)N1CCC(c2cc(-c3ccccc3)sc2C(=O)O)=C(C2CCC(C)CC2)C1 (stereo not drawn)
> 10 µM

Write down IC50 measured for item CC1CCC(C2=C(c3cc(-c4ccc(C#Cc5cscn5)cc4)sc3C(=O)O)CCN(C)C2)CC1 (stereo not drawn) [Example 129, hydrochloride salt]
< 3 µM

Write down IC50 measured for item CC1CCC(C2=C(c3cc(C#CC(C)(C)C)sc3C(=O)O)CN(C(=O)CO)CC2)CC1 (stereo not drawn)
3 to 10 µM

Write down IC50 measured for item CC1CCC(C2=C(c3cc(C#CC(C)(C)C)sc3C(=O)O)CCN(Cc3ccncc3)C2)CC1 (stereo not drawn)
3 to 10 µM

Write down IC50 measured for item CCCC(C)C#Cc1cc(C2=C(C3CCC(C)CC3)CCN(C)C2)c(C(=O)O)s1 (stereo not drawn)
3 to 10 µM

Write down IC50 measured for item CC1CCC(C2=C(c3cc(-c4ccc(-c5cc6ncccn6n5)cc4)sc3C(=O)O)CCN(C)C2)CC1 (stereo not drawn)
< 3 µM

Write down IC50 measured for item CC1CCC(C2=C(c3cc(-c4ccccc4)sc3C(=O)O)CCN(CCCc3ccccc3)C2)CC1 (stereo not drawn)
> 10 µM

Write down IC50 measured for item CCN1CCC(c2cc(-c3ccc(NC(=O)c4ccsc4)cc3)sc2C(=O)O)=C(C2CCC(C)CC2)C1 (stereo not drawn)
< 3 µM

Write down IC50 measured for item CC1CCC(C2=C(c3cc(-c4ccc(-c5nc6cccnc6[nH]5)cc4)sc3C(=O)O)CCN(C)C2)CC1 (stereo not drawn)
3 to 10 µM

Write down IC50 measured for item Cc1ccnc2cc(-c3ccc(-c4cc(C5=C(C6CCC(C)CC6)CN(C)CC5)c(C(=O)O)s4)cc3)nn12 (stereo not drawn)
< 3 µM

Write down IC50 measured for item CC1CCC(C2=C(c3cc(-c4ccc(-c5cc6ncccn6n5)cc4)sc3C(=O)O)CN(C)CC2)CC1 (stereo not drawn)
< 3 µM

Write down IC50 measured for item CC1CCC(C2=C(c3cc(C#Cc4ccccc4)sc3C(=O)O)CCN(C)C2)CC1 (stereo not drawn)
> 10 µM

Write down IC50 measured for item CC1CCC(C2=C(c3cc(-c4ccc(C5=CC6N=CC=CC6O5)cc4)sc3C(=O)O)CCN(C)C2)CC1 (stereo not drawn)
< 3 µM

Write down IC50 measured for item `CN1CCC(c2cc(C#CC(C)(C)C)sc2C(=O)O)=C([C@H]2CC[C@H](C)CC2)C1`
< 3 µM

Write down IC50 measured for item CCN1CCC(c2cc(C#CC3CC3)sc2C(=O)O)=C(C2CCC(C)CC2)C1 (stereo not drawn)
< 3 µM

----------
Biological target: HCV1b NS5B polymerase delta 21 (Hepatitis C virus genotype 1b)
Construct: purified HCV1b NS5B polymerase delta 21
Test: RNA-Dependent RNA HCV NS5B (Polymerase) Assay and IC50 Determination
Format: biochemical
valueType: IC50

Write down IC50 measured for item CC1CCC(C2=C(c3cc(-c4ccccc4)sc3C(=O)O)CCN(Cc3ccc(Cl)cc3)C2)CC1 (stereo not shown)
3 to 10 µM

Write down IC50 measured for item CC1CCC(C2=C(c3cc(-c4ccccc4)sc3C(=O)O)CCN(C(=O)CCc3ccccc3)C2)CC1 (stereo not shown)
> 10 µM

Write down IC50 measured for item CC1CCC(C2=C(c3cc(C#CC4CC4)sc3C(=O)O)CN(C)CC2)CC1 (stereo not shown)
< 3 µM

Write down IC50 measured for item CCN1CCC(c2cc(-c3cccc(N)c3)sc2C(=O)O)=C(C2CCC(C)CC2)C1 (stereo not shown)
3 to 10 µM

Write down IC50 measured for item CCCCN1CCC(c2cc(-c3ccccc3)sc2C(=O)O)=C(C2CCC(C)CC2)C1 (stereo not shown)
< 3 µM

Write down IC50 measured for item CC1CCC(C2=C(c3cc(-c4ccccc4)sc3C(=O)O)CCN(C(=O)c3cn(C)c4ccccc34)C2)CC1 (stereo not shown)
> 10 µM

Write down IC50 measured for item Cc1cc(C)n2nc(CN3CCC(c4cc(C#CC(C)(C)C)sc4C(=O)O)=C(C4CCC(C)CC4)C3)nc2n1 (stereo not shown)
< 3 µM

Write down IC50 measured for item CC1CCC(C2=C(c3cc(-c4ccc(NC(=O)c5cscn5)c(F)c4)sc3C(=O)O)CCN(C)C2)CC1 (stereo not shown)
< 3 µM

Write down IC50 measured for item CC1CCC(C2=C(c3cc(C#CC(C)(C)C)sc3C(=O)O)CNCC2)CC1 (stereo not shown)
< 3 µM

Write down IC50 measured for item CCN1CCC(c2cc(C#CC(C)(C)N(C)C)sc2C(=O)O)=C(C2CCC(C)CC2)C1 (stereo not shown)
< 3 µM

Write down IC50 measured for item CC1CCC(C2=C(c3cc(-c4ccccc4)sc3C(=O)O)CCN(C(=O)OCc3ccccc3)C2)CC1 (stereo not shown)
> 10 µM

Write down IC50 measured for item CCOC(C#Cc1cc(C2=C(C3CCC(C)CC3)CN(CC)CC2)c(C(=O)O)s1)OCC (stereo not shown)
3 to 10 µM

Write down IC50 measured for item COCCN1CCC(C2CCC(C)CC2)=C(c2cc(C#CC(C)(C)C)sc2C(=O)O)C1 (stereo not shown)
> 10 µM

Write down IC50 measured for item Cc1cc(C)n2nc(-c3ccc(-c4cc(C5=C(C6CCC(C)CC6)CN(C)CC5)c(C(=O)O)s4)cc3)cc2n1 (stereo not shown)
3 to 10 µM

Write down IC50 measured for item CN1CCC(c2cc(-c3ccccc3)sc2C(=O)O)=C(C2CCC(C(F)(F)F)CC2)C1 (stereo not shown)
> 10 µM

Write down IC50 measured for item CC1CCC(C2=C(c3cc(-c4ccccc4)sc3C(=O)O)CCN(C(=O)Cc3ccncc3)C2)CC1 (stereo not shown)
> 10 µM

Write down IC50 measured for item CC1CCC(C2=C(c3cc(-c4ccccc4)sc3C(=O)O)CCN(Cc3ccncc3)C2)CC1 (stereo not shown)
< 3 µM

Write down IC50 measured for item CC1CCC(C2=C(c3cc(-c4ccccc4)sc3C(=O)O)CCN(C(=O)c3cnccn3)C2)CC1 (stereo not shown)
< 3 µM

Write down IC50 measured for item CC1CCC(C2=C(c3cc(-c4ccc(-n5cc6ncccc6n5)cc4)sc3C(=O)O)CCN(C)C2)CC1 (stereo not shown)
< 3 µM
